Data provenance is PubChem BioAssay (NCATS).

protocol description: qHTS for differential inhibitors of proliferation of Plasmodium falciparum line 7G8 (AID 1815);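 note: parasite growth measured after three days of incubation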
assay conditions: Plasmodium falciparum 7G8 proliferation inhibition; series mostly up to 28.7 µM
Results filed as inconclusive are left out. The source made the active and inactive calls. Calls come from the whole dose curve; as a rule, active = well fitted curve in the direction sought with a large enough effect; inconclusive = small, poorly fitted or top-dose-only effect, or another doubt; inactive = no such curve, though single readings can be large or run the other way.
Output constraint: value belongs to active, inactive

[ask] Any idea what this test logged for O=C(O)c1nn(Cc2ccc(Cl)cc2Cl)c2ccccc12 ?
[reply] inactive

[ask] Any idea what this test logged for COC(=O)C1=CCCN(C)C1 ?
[reply] inactive

[ask] Any idea what this test logged for CCCCCCCCC(=O)NCc1ccc(O)c(OC)c1 ?
[reply] inactive

[ask] Any idea what this test logged for C[N+](C)(C)CCCCCCCCCC[N+](C)(C)C ?
[reply] active

[ask] Any idea what this test logged for CNC(=O)Oc1ccc2c(c1)[C@]1(C)CCN(C)[C@@H]1N2C ?
[reply] active

[ask] Any idea what this test logged for O=C1CC2(CCCC2)CC(=O)N1CCCCN1CCN(c2ncccn2)CC1 ?
[reply] active

[ask] Any idea what this test logged for CC[C@H]1CN2CCc3cc(OC)c(OC)cc3[C@@H]2C[C@@H]1C[C@H]1NCCc2cc(OC)c(OC)cc21 ?
[reply] active

###

protocol description: Primary qHTS for Vero E6 cytotoxicity: counterscreen for inhibitors of SARS-S pseudo-typed particle cell entry (AID 1479150)
assay conditions: cell viability; series mostly up to 57.1 µM
Inconclusive results are not listed. The source made the active and inactive calls. The call rests on the fitted dose curve.
readout type: outcome

Some entries whose results are on file:
1) CC(C)Cc1ccc(C(C)C(=O)OCc2ccccn2)cc1 (configuration not stated) ... inactive
2) CCOC(=O)n1ccn(C)c1=S ... inactive
3) N[C@H](Cc1c[nH]c2ccccc12)C(=O)O ... inactive
4) CN(C)CC/C=C1\c2ccccc2Sc2ccc(Cl)cc21 ... inactive
5) O=C(NC(=O)c1c(F)cccc1F)Nc1cc(Cl)c(OC(F)(F)C(F)C(F)(F)F)cc1Cl (configuration not stated) ... inactive
6) Cc1c(N(C)C)c(=O)n(-c2ccccc2)n1C ... inactive

The recorded outcome for C/C=C/c1ccc(OC)cc1 is inactive

The recorded outcome for CN1CCC(=C2c3ccccc3CCc3cccnc32)CC1 is inactive

The recorded outcome for Cc1nnc(C(=O)NC(C)(C)c2nc(C(=O)NCc3ccc(F)cc3)c(O)c(=O)n2C)o1 is inactive

The recorded outcome for CCC(=O)c1ccc2c(c1)N(CCCN(C)C)c1ccccc1S2 is inactive

The recorded outcome for CN1CCOC(c2ccccc2)c2ccccc2C1 (configuration not stated) is inactive

The recorded outcome for CC(=O)Nc1ccc(S(=O)(=O)Nc2ccc([N+](=O)[O-])cc2)cc1 is inactive

###

System: UISO
protocol description: qHTS assay to identify novel small-molecules to repurpose for Merkel cell carcinoma treatment (AID 1296009); note: nearly all actives have a fitted effect of over 60% in size
assay conditions: MCC and control cell lines, CellTiter-Glo viability, 72 h; series mostly up to 46 µM
Records with an inconclusive call do not appear. Activity calls are given as the source filed them. The call rests on the fitted dose curve; in most records, active means well fitted inhibition curve with a large enough effect; inconclusive means small, poorly fitted or top-dose-only effect; inactive means flat fitted curve, though single readings scatter.
Output constraint: value belongs to active, inactive

[ask] Any idea what this test logged for CN1C(=O)CN=C(c2ccccc2)c2cc([N+](=O)[O-])ccc21 ?
[reply] inactive

[ask] Any idea what this test logged for CCC(=O)C(CCN(C)C)(c1ccccc1)c1ccccc1 ?
[reply] inactive

[ask] Any idea what this test logged for CCOP(=S)(OCC)O/N=C(\C#N)c1ccccc1 ?
[reply] inactive

[ask] Any idea what this test logged for CC(C)=C[C@@H]1[C@@H](C(=O)OCc2coc(Cc3ccccc3)c2)C1(C)C ?
[reply] inactive

[ask] Any idea what this test logged for O=c1n(Cl)c(=O)n(Cl)c(=O)n1Cl ?
[reply] inactive

[ask] Any idea what this test logged for COc1ccc(C(=O)N2CCCC2=O)cc1 ?
[reply] inactive

[ask] Any idea what this test logged for CNC(C)Cc1ccccc1OC (centres undefined) ?
[reply] inactive

[ask] Any idea what this test logged for CCC1(c2ccccc2)CCC(=O)NC1=O (centres undefined) ?
[reply] inactive

[ask] Any idea what this test logged for CC(C)NCC(O)c1ccc(N)c(C#N)c1 (centres undefined) ?
[reply] inactive

[ask] Any idea what this test logged for O=C(O)Cc1ccccc1 ?
[reply] inactive

[ask] Any idea what this test logged for CN1C[C@@H](NS(=O)(=O)N(C)C)C[C@@H]2c3cccc4c3c(cn4C)C[C@H]21 ?
[reply] inactive

[ask] Any idea what this test logged for ClCc1cccc(Cl)c1 ?
[reply] inactive

[ask] Any idea what this test logged for CCS(=O)(=O)C(C)(C)S(=O)(=O)CC ?
[reply] inactive

[ask] Any idea what this test logged for C[N+]1(CCC(C(N)=O)(c2ccccc2)c2ccccc2)CCCCC1 ?
[reply] inactive

[ask] Any idea what this test logged for COc1ccc(OC)c(CC(C)N)c1 (centres undefined) ?
[reply] inactive

[ask] Any idea what this test logged for C[N+]1(C)[C@@H]2CC[C@H]1CC(OC(=O)C(CO)c1ccccc1)C2 (some centres undefined) ?
[reply] inactive

[ask] Any idea what this test logged for COc1ccc2c(C(=O)c3ccc(Cl)cc3)c(C)n(CC(=O)O)c2c1 ?
[reply] active

[ask] Any idea what this test logged for O=C(CCl)c1ccc(Cl)cc1Cl ?
[reply] inactive

[ask] Any idea what this test logged for CN1C(=O)CN=C(c2ccccc2)c2cc(Cl)ccc21 ?
[reply] inactive

[ask] Any idea what this test logged for Sc1ccccc1Cl ?
[reply] inactive

[ask] Any idea what this test logged for COP(=O)(OC)C(O)C(Cl)(Cl)Cl (centres undefined) ?
[reply] inactive

[ask] Any idea what this test logged for CC(C)(O)C(Cl)(Cl)Cl ?
[reply] inactive

[ask] Any idea what this test logged for NCc1cccnc1 ?
[reply] inactive

[ask] Any idea what this test logged for CCOC(=O)c1cncn1C(C)c1ccccc1 (centres undefined) ?
[reply] inactive

[ask] Any idea what this test logged for Oc1ccc([C@H]2CNCc3c2ccc(O)c3O)cc1O ?
[reply] inactive

[ask] Any idea what this test logged for CCN(Cc1ccc(Cl)nc1)/C(=C/[N+](=O)[O-])NC ?
[reply] inactive

[ask] Any idea what this test logged for Cc1nnc2n1-c1sc(CCC(=O)N3CCOCC3)cc1C(c1ccccc1Cl)=NC2 ?
[reply] inactive

[ask] Any idea what this test logged for Cc1ccc([N+](=O)[O-])[c]2c1[O][Hg]2 ?
[reply] active

[ask] Any idea what this test logged for CCC(OC(C)=O)C(CC(C)NC)(c1ccccc1)c1ccccc1 (centres undefined) ?
[reply] active

[ask] Any idea what this test logged for C[C@@H]1O[C@@H](O[C@@H]2C=C3CC[C@@H]4[C@H](CC[C@]5(C)[C@@H](c6ccc(=O)oc6)CC[C@]45O)[C@@]3(C)CC2)[C@H](O)[C@H](O)[C@H]1O ?
[reply] active

[ask] Any idea what this test logged for CCC1(c2cccc(O)c2)CCCCN(C)C1 (centres undefined) ?
[reply] inactive

[ask] Any idea what this test logged for CCCCC1C(=O)NC(=O)N(C2CCCCC2)C1=O (centres undefined) ?
[reply] inactive

[ask] Any idea what this test logged for ClC1=C(Cl)C2(Cl)C(CBr)CC1(Cl)C2(Cl)Cl (centres undefined) ?
[reply] inactive

[ask] Any idea what this test logged for CCOC(=O)c1ncn2c1CN(C)C(=O)c1c(I)cccc1-2 ?
[reply] inactive

[ask] Any idea what this test logged for Cc1ncc2n1-c1ccc(Cl)cc1C(c1ccccc1F)=NC2 ?
[reply] inactive

[ask] Any idea what this test logged for Cc1nc2ccccc2c(=O)n1-c1ccccc1Cl ?
[reply] inactive

[ask] Any idea what this test logged for COc1ccc2[nH]cc(CCN(C(C)C)C(C)C)c2c1 ?
[reply] inactive

[ask] Any idea what this test logged for CC(C)[N+](C)(CCC(C(N)=O)(c1ccccc1)c1ccccc1)C(C)C ?
[reply] inactive

[ask] Any idea what this test logged for CN1C2CCC(C)(C)C1CC(OC(=O)C(O)(c1cccs1)c1cccs1)C2 (centres undefined) ?
[reply] inactive
